Provenance of the data: the supplement of paper PMC9938120

- Tested on: FMOC25_2 (patient-derived low-grade serous ovarian cancer cells)
- test_protocol: drug sensitivity score (DSS3, normalised partial AUC of % inhibition dose-response) (DSS (score)); higher = more sensitive (stronger inhibition of viability); extreme values may be limits of the assay
- cond: 72 h; library: FO5A; assay format: 2D, 384-well, CellTiter-Glo
Label Condition met when drug sensitivity score is at or above 5; anything below gets Condition not met.

A selection of reference data follows.
structure_as_smiles	target_system	class_name
O[C@H](C[C@H]1c2c(F)cccc2-c2cncn21)[C@H]1CC[C@H](O)CC1	FMOC25_2	Condition not met
COc1cc(OC)cc(N(CCNC(C)C)c2ccc3ncc(-c4cnn(C)c4)nc3c2)c1	FMOC25_2	Condition not met
Cc1c(Cn2c(C)nc3c(C(=O)O)cc(N4CCOCC4)cc32)cccc1C(F)(F)F	FMOC25_2	Condition met
Cc1nc(NC(=O)N2CCC[C@H]2C(N)=O)sc1-c1ccnc(C(C)(C)C(F)(F)F)c1	FMOC25_2	Condition not met
Cc1cc(-c2nc(-c3ccc(OC(F)(F)F)cc3)no2)nn1Cc1ccnc(N2CCN(C3CC3)CC2)c1	FMOC25_2	Condition met

Kindly determine if drug sensitivity score recorded for `CCCCOc1nc(N)c2c(n1)N(Cc1cccc(CN3CCCC3)c1)CC(=O)N2` is above or exactly 5. Condition not met

Is it the case that `Cc1sc2c(c1C)C(c1ccc(Cl)cc1)=N[C@@H](CC(=O)Nc1ccc(O)cc1)c1nnc(C)n1-2` has drug sensitivity score reaching or exceeding 5? Condition met

I'd appreciate it if you could say whether `CNC(=O)c1cccc(-c2ccc3c(N4CCOC[C@@H]4C)nc(N4CCOC[C@@H]4C)nc3n2)c1` has drug sensitivity score at least equal to 5. Condition met

* * *

- Test system: FMOC22 (patient-derived mucinous ovarian cancer cells)
- test_protocol: drug sensitivity score (DSS3, normalised partial AUC of % inhibition dose-response) (DSS (score)); higher = more sensitive (stronger inhibition of viability); extreme values may be limits of the assay
- cond: 72 h; library: FO5A; assay format: 2D, 384-well, CellTiter-Glo
Measured drug sensitivity score by item
# respond with the number and nothing more

compound	drug sensitivity score
CN(C)Cc1ccc(S(=O)(=O)n2ccc(/C=C/C(=O)NO)c2)cc1 [Resminostat]	6.8
CO[C@H]1C[C@@H]2CC[C@@H](C)[C@@](O)(O2)C(=O)C(=O)N2CCCC[C@H]2C(=O)O[C@H]([C@H](C)C[C@@H]2CC[C@@H](OCCO)[C@H](OC)C2)CC(=O)[C@H](C)/C=C(\C)[C@@H](O)[C@@H](OC)C(=O)[C@H](C)C[C@H](C)/C=C/C=C/C=C/1C [Everolimus]	6.7
Cc1cnc(-c2ccccc2C(C)C)nc1NCc1ccc(-n2ccnn2)cc1 [ML323]	0.3

Which value of drug sensitivity score has been reported for CC(C)N(C[C@H]1O[C@@H](n2cnc3c(N)ncnc32)[C@H](O)[C@@H]1O)[C@H]1C[C@@H](CCc2nc3cc(C(C)(C)C)ccc3[nH]2)C1 [Pinometostat] in the records? 0

// query drug sensitivity score value for entry COc1c(C)cnc(Cn2cnc3c(Cl)nc(N)nc32)c1C [BIIB021] 11.7

For the compound Cc1ccc(C(=O)Nc2cccc(C(F)(F)F)c2)cc1Nc1nc(-c2cccnc2)nc2c1cnn2C [NVP-BHG712] , what drug sensitivity score is on record? 3.4

Which value of drug sensitivity score has been reported for CC(C)[C@H](C(=O)Nc1ccc(C(=O)NO)cc1)c1ccccc1 [AR-42] in the records? 8.7
